From: patent US8188108B2

assay: clinical; details: both, human, in vivo, po, Cmax, Least-Squares Means (LSM), Form B
Metric: Cmax (ng/mL)
Please respond with the number in ng/mL and leave the unit unwritten.

Recorded result, COc1ccc2c3c1O[C@H]1C(=O)CC[C@H]4[C@@H](C2)N(C)CC[C@]314 [Hydrocodone, hydrocodone] , Cmax: 24.2

###

assay: clinical; conditions: both, human, in vivo, po, AUCinf, Least-Squares Means (LSM), Form A, plasma; Treatment A: Lortab 10 mg/500 mg + Colace 50 mg, single oral dose, fasting
Metric: AUC(0-inf) (ng·h/mL)
Please respond with the number in ng·h/mL and leave the unit unwritten.

INSERT INTO assay_data (compound, unit_text, numeric_value) VALUES
  ('CC(=O)Nc1ccc(O)cc1', 'ng·h/mL', 22700);

Could you now look at the following compound, please?
Recorded result, CCCCC(CC)COC(=O)CC(C(=O)OCC(CC)CCCC)S(=O)(=O)O (centres unmarked) [Docusate, dioctyl sodium sulphosuccinate] , AUC(0-inf): 1170

###

assay: clinical; conditions: both, human, in vivo, po, AUC 0-t, Least-Squares Means (LSM), Form D
Metric: AUC(0-t) (µg·h/mL)
Please respond with the number in µg·h/mL and leave the unit unwritten.

Recorded result, COc1ccc2c3c1O[C@H]1C(=O)CC[C@H]4[C@@H](C2)N(C)CC[C@]314 [Hydrocodone, hydrocodone] , AUC(0-t): 0.146

###

experiment: clinical; conditions: both, human, in vivo, po, AUCinf, Least-Squares Means (LSM), Form D
Metric: AUC(0-inf) (ng·h/mL)
Please respond with the number in ng·h/mL and leave the unit unwritten.

Recorded result, COc1ccc2c3c1O[C@H]1C(=O)CC[C@H]4[C@@H](C2)N(C)CC[C@]314 [Hydrocodone, hydrocodone] , AUC(0-inf): 175

###

assay: clinical; conditions: both, human, in vivo, po, AUCinf, Least-Squares Means (LSM), Form B, plasma; Treatment B: Lortab 10 mg/500 mg alone, single oral dose, fasting
Metric: AUC(0-inf) (ng·h/mL)
Please respond with the number in ng·h/mL and leave the unit unwritten.

Recorded result, CC(=O)Nc1ccc(O)cc1 [Acetaminophen, acetaminophen] , AUC(0-inf): 22000

###

assay: clinical; conditions: both, human, in vivo, po, Cmax, Least-Squares Means (LSM), Form A, plasma; Treatment A: Lortab 10 mg/500 mg + Colace 50 mg, single oral dose, fasting
Cmax values for the molecules below.
Please respond with the number in ng/mL and leave the unit unwritten.

INSERT INTO results (molecule, unit_text, numeric_value) VALUES
  ('CC(=O)Nc1ccc(O)cc1', 'ng/mL', 5450);

Recorded result, CCCCC(CC)COC(=O)CC(C(=O)OCC(CC)CCCC)S(=O)(=O)O (centres unmarked) [Docusate, dioctyl sodium sulphosuccinate] , Cmax: 608

###

test: clinical; conditions: both, human, in vivo, po, Cmax, Least-Squares Means (LSM), Form B, plasma; Treatment B: Lortab 10 mg/500 mg alone, single oral dose, fasting
Metric: Cmax (ng/mL)
Please respond with the number in ng/mL and leave the unit unwritten.

Recorded result, CC(=O)Nc1ccc(O)cc1 [Acetaminophen, acetaminophen] , Cmax: 5920

###

assay: clinical; conditions: both, human, in vivo, po, AUCinf, Least-Squares Means (LSM), Form C, plasma; Treatment C: Lortab 10 mg/500 mg + Colace 50 mg, single oral dose, fed
Metric: AUC(0-inf) (ng·h/mL)
Please respond with the number in ng·h/mL and leave the unit unwritten.

INSERT INTO measurements (molecule, metric, numeric_value) VALUES
  ('CCCCC(CC)COC(=O)CC(C(=O)OCC(CC)CCCC)S(=O)(=O)O (centres unmarked) [Docusate, dioctyl sodium sulphosuccinate]', 'AUC(0-inf)', 1510);

Could you now look at the following molecule, please?
Recorded result, CC(=O)Nc1ccc(O)cc1 [Acetaminophen, acetaminophen] , AUC(0-inf): 21500
